Details: 328.15 K; 100 kPa; Liquid; Vibrating tube method
Listed below: mass density values for each entry.
MEASURED_ENDPOINT: mass density (kg/m3)

>>> number("CCCC[N+](CCCC)(CCCC)CCCC.O=S(=O)([O-])CC(O)CNC1CCCCC1")
1008.6
>>> number("CCCC[P+](CCCC)(CCCC)CCCC.O=S(=O)([O-])CCN(CCO)CCO")
1044
>>> number("CCCC[N+](CCCC)(CCCC)CCCC.O=S(=O)([O-])CCN(CCO)CCO")
1044
>>> number("C[N+](C)(C)CCO.O=S(=O)([O-])CC(O)CN1CCOCC1 (centres undefined)")
1222.5
>>> number("CCCC[P+](CCCC)(CCCC)CCCC.O=S(=O)([O-])CC(O)CNC1CCCCC1")
1012.9
>>> number("C[N+](C)(C)CCO.O=S(=O)([O-])CCN(CCO)CCO")
1227.7
>>> number("CCCC[N+](CCCC)(CCCC)CCCC.O=S(=O)([O-])CC(O)CN1CCOCC1 [tetrabutylammonium 2-hydroxy-3-morpholinopropanesulfonate]")
1039.4
>>> number("CCCC[P+](CCCC)(CCCC)CCCC.O=S(=O)([O-])CC(O)CN1CCOCC1 [tetrabutylphosphonium 2-hydroxy-3-morpholinopropanesulfonate]")
1038.2
>>> number("C[N+](C)(C)CCO.O=S(=O)([O-])CC(O)CNC(CO)(CO)CO (centres undefined)")
1316.4
